Please go through the items and note down their kon.
biological target: T1, human IL-17A/F (human, UniProt Q16552 24-155; Q96PD4 31-163); test: SPR (Biacore 3000), antibody captured by anti-Fc, antigen in solution;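 further: purified recombinant IL-17 antigens flowed over captured antibodies in HBS-EP buffer, global Langmuir one-to-one fit of association and dissociation phases, KD derived from koff over kon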
T1 construct: Recombinant; biotinylated in the ELISA; also called hIL-17A/F; HuIL-17A/F
T1 sequence (Q16552 24-155, chain 1 of 2): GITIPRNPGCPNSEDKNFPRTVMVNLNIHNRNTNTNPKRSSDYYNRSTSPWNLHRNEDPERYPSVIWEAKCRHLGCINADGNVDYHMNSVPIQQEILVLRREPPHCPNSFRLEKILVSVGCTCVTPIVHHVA
T1 sequence (Q96PD4 31-163, chain 2 of 2): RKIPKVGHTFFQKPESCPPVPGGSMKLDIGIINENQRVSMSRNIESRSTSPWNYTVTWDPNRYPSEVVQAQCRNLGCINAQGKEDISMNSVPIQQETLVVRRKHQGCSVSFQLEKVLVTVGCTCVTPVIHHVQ

Sure, the documented kon for IL17-h5C5.8 (antibody, V domains shown, IgG; constant regions not specified; also called h5C5.8 (VH.1-Vk.1a)) VH: EVQLVQSGAEVKKPGASVKVSCKASGYTFTDYEFHWVRQAPGQGLEWMGVIHPGNGGTAYNQNFRDRVTITADKSTSTAYMELSSLRSEDTAVYYCARFLTYEGYFDYWGQGTLVTVSS VL: DIQMTQSPSSLSASVGDRVTITCKASQSVSIDVGWFQQKPGKSPKLLIYHASNRYTGVPSRFSGSGSGTDFTFTISSLQPEDFATYFCQQDYSSPYTFGQGTKLEIKR is 948000 M⁻¹ s⁻¹

Sure, the documented kon for IL17-h5C5.14 (antibody, V domains shown, IgG; constant regions not specified; also called h5C5.14 (VH.1-Vk.3a)) VH: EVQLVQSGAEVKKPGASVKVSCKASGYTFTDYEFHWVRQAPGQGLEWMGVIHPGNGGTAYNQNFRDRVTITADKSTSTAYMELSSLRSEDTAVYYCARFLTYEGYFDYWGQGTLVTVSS VL: EIVMTQSPATLSVSPGERATLSCKASQSVSIDVGWFQQKPGQSPRLLIYHASNRYTGVPARFSGSGSGTDFTLTISSLQPEDFAVYFCQQDYSSPYTFGQGTKLEIKR is 1.07e+06 M⁻¹ s⁻¹

Sure, the documented kon for IL17-h10F7.11 (antibody, V domains shown, IgG; constant regions not specified; also called h10F7.11 (VH.1a-Vk.2a)) VH: EVQLVQSGAEVKKPGSSVKVSCKASGYTFTDYEIHWVRQAPGQGLEWIGVNDPESGGTFYNQKFDGRATLTADKSTSTAYMELSSLRSEDTAVYYCTRYYRYESFYGMDYWGQGTTVTVSS VL: EIVLTQSPDFQSVTPKEKVTITCSASSSISYIYWFQQKPDQSPKRWIYATFELASGVPSRFSGSGSGTDYTLTINSLEAEDAATYYCHQRSSYPWTFGQGTKLEIKR is 408000 M⁻¹ s⁻¹

Sure, the documented kon for IL17-h5C5.18 (antibody, V domains shown, IgG; constant regions not specified; also called h5C5.18 (VH.1b-Vk.1c)) VH: EVQLVQSGAEVKKPGASVKVSCKASGYTFTDYEFHWVRQAPGQGLEWIGVIHPGNGGTAYNQNFRDRATLTADKSTSTAYMELSSLRSEDTAVYYCTRFLTYEGYFDYWGQGTLVTVSS VL: NIVMTQSPSSLSASVGDRVTITCKASQSVSIDVGWFQQKPGKSPKLLIYHASNRYTGVPSRFSGSGSGTDFTFTISSLQPEDFATYFCQQDYSSPYTFGQGTKLEIKR is 772000 M⁻¹ s⁻¹

Sure, the documented kon for IL17-h10F7.6 (antibody, V domains shown, IgG; constant regions not specified; also called h10F7.6 (VH.1a-Vk.1a)) VH: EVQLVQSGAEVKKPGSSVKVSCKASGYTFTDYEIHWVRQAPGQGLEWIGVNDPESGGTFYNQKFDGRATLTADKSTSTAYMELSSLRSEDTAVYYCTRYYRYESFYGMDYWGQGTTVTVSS VL: DIQLTQSPSSLSASVGDRVTITCSASSSISYIYWFQQKPGKSPKRWIYATFELASGVPSRFSGSGSGTDYTLTISSLQPEDFATYYCHQRSSYPWTFGQGTKLEIKR is 609000 M⁻¹ s⁻¹

Sure, the documented kon for IL17-h5C5.15 (antibody, V domains shown, IgG; constant regions not specified; also called h5C5.15 (VH.1b-Vk.3a)) VH: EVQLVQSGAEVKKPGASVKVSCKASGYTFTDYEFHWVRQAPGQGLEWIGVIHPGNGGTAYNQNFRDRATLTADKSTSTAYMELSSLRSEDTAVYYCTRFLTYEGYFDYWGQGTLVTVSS VL: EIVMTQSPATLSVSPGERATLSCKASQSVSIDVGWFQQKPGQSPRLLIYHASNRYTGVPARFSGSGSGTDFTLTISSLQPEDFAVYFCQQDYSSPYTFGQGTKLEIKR is 781000 M⁻¹ s⁻¹
